// provenance: patent US20250243219A1

target-of-assay: cyclophilin D (Homo sapiens (Human), UniProt P30405)
Sequence (P30405 30-207, species assumed): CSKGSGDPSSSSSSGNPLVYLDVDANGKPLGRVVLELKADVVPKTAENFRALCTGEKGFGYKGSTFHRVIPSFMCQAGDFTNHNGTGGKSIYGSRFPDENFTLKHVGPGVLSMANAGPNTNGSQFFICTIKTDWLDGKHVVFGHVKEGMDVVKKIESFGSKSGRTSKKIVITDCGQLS
method-notes: Functional peptidyl prolyl isomerase (PPIase) spectrophotometric assay, cyclophilin D
Assay type: biochemical
study-conditions: second value of CypA/D cell; read-out: Ki CypD
pKi: −log10 of the molar value.
readout: pKi

• CC(C)[C@@H]1CC(=O)C(C)(C)/C=C/c2ccc3ccc(nc3c2)N(C)NC(=O)[C@@H]2CCCN(N2)C(=O)[C@H](C)NC1=O = 8.21

I: C[C@@H]1NC(=O)[C@H](Cc2ccc(O)cc2)OC(=O)C(C)(C)/C=C/c2ccc3ccc(nc3c2)N(C)NC(=O)[C@@H]2CCCN(N2)C1=O
II: CC(C)[C@@H]1OC(=O)C(C)(C)/C=C/c2ccc3ccc(nc3c2)N(C)NC(=O)[C@@H]2CCCN(N2)C(=O)[C@H](CCC(=O)N(C)c2ccccc2)NC1=O
III: C[C@@H]1NC(=O)[C@H](C[C@@H]2CCCN(C)C2)OC(=O)C(C)(C)/C=C/c2ccc3ccc(nc3c2)N(C)NC(=O)[C@@H]2CCCN(N2)C1=O
IV: C[C@@H]1NC(=O)[C@H](CN2CCCCC2)OC(=O)C(C)(C)/C=C/c2ccc3ccc(nc3c2)N(C)NC(=O)[C@@H]2CCCN(N2)C1=O
V: C[C@@H]1NC(=O)[C@H](Cc2ccccc2Cl)OC(=O)C(C)(C)/C=C/c2ccc3ccc(nc3c2)N(C)NC(=O)[C@@H]2CCCN(N2)C1=O
Order field: pKi | Direction: descending (largest first) Please, when replying, give the labels in the order that was requested.
I, V, II, IV, III
(I: 8.24, V: 8.03, II: 7.23, IV: 6.85, III: 5.85)
